Catalogue of TGI values
tested on: NCI-H460 lung; test: NCI tumour cell line growth inhibition, 48 h
Where a SMILES comes first, the peptide text is derived from it. [ ]: non-standard residue; d: D form.

[
  {
    "COMPOUND": "CCCCCCCCN(CCCCCCCC)CC(O)c1cc(-c2ccccc2)nc2ccc(OC)cc12 (stereo unspecified)",
    "SUBJECT_OF_TEST": "NCI-H460 lung",
    "TGI": "> 100 µM"
  },
  {
    "COMPOUND": "O=C(O)c1cc(NCc2cc(O)ccc2O)ccc1O",
    "SUBJECT_OF_TEST": "NCI-H460 lung",
    "TGI": "> 100 µM"
  },
  {
    "COMPOUND": "Cc1nc(N)c(N2CCN(S(=O)(=O)N(Cc3ccccc3)Cc3ccccc3)CC2)c(=O)[nH]1",
    "SUBJECT_OF_TEST": "NCI-H460 lung",
    "TGI": "> 100 µM"
  },
  {
    "COMPOUND": "CC(C)N1CC2CC(CN(C(=O)c3ccc(Cl)cc3)C2)C1",
    "SUBJECT_OF_TEST": "NCI-H460 lung",
    "TGI": "> 100 µM"
  },
  {
    "COMPOUND": "COc1ccc(C(C2=C(O)CC(C)OC2=O)C2=C(O)CC(C)OC2=O)cc1 (stereo unspecified)",
    "SUBJECT_OF_TEST": "NCI-H460 lung",
    "TGI": "> 100 µM"
  },
  {
    "COMPOUND": "COC(=O)NC(Cc1ccccc1)NC(=O)OC(C)(C)C (stereo unspecified)",
    "SUBJECT_OF_TEST": "NCI-H460 lung",
    "TGI": "> 100 µM"
  },
  {
    "COMPOUND": "COC1(OC)CC(CO)(COc2cc(Cl)nc(N)n2)C1",
    "SUBJECT_OF_TEST": "NCI-H460 lung",
    "TGI": "> 100 µM"
  },
  {
    "COMPOUND": "Cc1ccc(C)n1-c1ccccc1C1C=Cn2c(=O)oc3c(OC(C)C)c(OC(C)C)c(O)c1c32 (stereo unspecified)",
    "SUBJECT_OF_TEST": "NCI-H460 lung",
    "TGI": "> 100 µM"
  },
  {
    "COMPOUND": "Cc1cc(N(CCC#N)S(=O)(=O)c2ccccc2)ccc1C=Nc1ccc(C(=O)O)cc1",
    "SUBJECT_OF_TEST": "NCI-H460 lung",
    "TGI": "29.9 µM"
  },
  {
    "COMPOUND": "O=[N+]([O-])c1ccc2c(c1)C(N1CCN(CCO)CC1)Cc1ccc(F)cc1S2 (stereo unspecified)",
    "SUBJECT_OF_TEST": "NCI-H460 lung",
    "TGI": "27.3 µM"
  },
  {
    "COMPOUND": "COc1cc2ncnc(Oc3ccc(NC(=O)Nc4ccc(CN5CCOCC5)c(C(F)(F)F)c4)c4ccccc34)c2cc1OC",
    "SUBJECT_OF_TEST": "NCI-H460 lung",
    "TGI": "3.64 µM"
  },
  {
    "COMPOUND": "CC1(C)OCC2OC(n3cnc4c(N)nc(Cl)nc43)C(OS(C)(=O)=O)C2O1 (stereo unspecified)",
    "SUBJECT_OF_TEST": "NCI-H460 lung",
    "TGI": "> 100 µM"
  },
  {
    "COMPOUND": "CC(=O)/C=C(/C)[O-].CC(=O)/C=C(/C)[O-].CC(=O)[CH-]C(C)=O.CC(=O)[CH-]C(C)=O.[Zr+4]",
    "SUBJECT_OF_TEST": "NCI-H460 lung",
    "TGI": "> 100 µM"
  },
  {
    "COMPOUND": "COc1c(C(N)=O)cc(-c2ccc(Cl)cc2)cc1-c1ccc(S(N)(=O)=O)cc1",
    "SUBJECT_OF_TEST": "NCI-H460 lung",
    "TGI": "> 25 µM"
  },
  {
    "COMPOUND": "COc1cc(C(c2ccccc2)N2C(=O)CC[C@H]2C(=O)O)cc(OC)c1OC (stereo partly specified)",
    "SUBJECT_OF_TEST": "NCI-H460 lung",
    "TGI": "> 100 µM"
  },
  {
    "COMPOUND": "C1=CC2C(C3CN(c4ccccc4)N=C13)C1C3C4C=CC21C=CC43 (stereo unspecified)",
    "SUBJECT_OF_TEST": "NCI-H460 lung",
    "TGI": "> 100 µM"
  },
  {
    "COMPOUND": "CCCCCCc1ccc(CCCCCCCC(=O)O)o1",
    "SUBJECT_OF_TEST": "NCI-H460 lung",
    "TGI": "> 100 µM"
  },
  {
    "COMPOUND": "COC(=O)C1=C(C)NC(=S)NC1c1ccc(N(CCCl)CCCl)cc1Cl (stereo unspecified)",
    "SUBJECT_OF_TEST": "NCI-H460 lung",
    "TGI": "> 100 µM"
  },
  {
    "COMPOUND": "O=C1C(Cl)N(c2ccc([N+](=O)[O-])cc2)C1c1c[nH]c2ccccc12 (stereo unspecified)",
    "SUBJECT_OF_TEST": "NCI-H460 lung",
    "TGI": "> 100 µM"
  },
  {
    "COMPOUND": "CCCCCCCCCCCC(=O)N(CCCCCCCCC)CC(O)C(O)C(OC1OC(CO)C(O)C(O)C1O)C(O)CO (stereo unspecified)",
    "SUBJECT_OF_TEST": "NCI-H460 lung",
    "TGI": "35.6 µM"
  },
  {
    "COMPOUND": "O=S(=O)(O)c1cc(S(=O)(=O)O)c2cc(N=Nc3ccc(N=Nc4ccc(/C=C/c5ccc(N=[N+]([O-])c6ccc(/C=C/c7ccc(N=Nc8ccc(N=Nc9ccc%10cc(S(=O)(=O)O)cc(S(=O)(=O)O)c%10c9)cc8)cc7S(=O)(=O)O)c(S(=O)(=O)O)c6)cc5S(=O)(=O)O)c(S(=O)(=O)O)c4)cc3)ccc2c1",
    "SUBJECT_OF_TEST": "NCI-H460 lung",
    "TGI": "> 100 µM"
  },
  {
    "COMPOUND": "Cc1ccsc1C(NC(=O)c1ccccc1)c1cc(Cl)c2cccnc2c1O (stereo unspecified)",
    "SUBJECT_OF_TEST": "NCI-H460 lung",
    "TGI": "2.03 µM"
  },
  {
    "COMPOUND": "CCOP(=O)(OCC)C(Nc1ccc(Cl)cc1)c1ccc(F)cc1 (stereo unspecified)",
    "SUBJECT_OF_TEST": "NCI-H460 lung",
    "TGI": "48.2 µM"
  },
  {
    "COMPOUND": "CCOc1ccc2c(c1)C(/C(C(Cl)=C(Cl)Cl)=[N+](/[O-])OC(=O)c1ccccc1)=N2",
    "SUBJECT_OF_TEST": "NCI-H460 lung",
    "TGI": "> 100 µM"
  },
  {
    "COMPOUND": "COc1ccc(C(=O)/C=C/c2ccc(OCc3cccc(C(F)(F)F)c3)c(OC)c2)cc1OC",
    "SUBJECT_OF_TEST": "NCI-H460 lung",
    "TGI": "> 1000 µM"
  },
  {
    "COMPOUND": "Cc1ccc2ccccc2c1CSc1nc(N)nc2c1ncn2CC(C)C",
    "SUBJECT_OF_TEST": "NCI-H460 lung",
    "TGI": "> 96.2 µM"
  },
  {
    "COMPOUND": "O=C(CC(=O)N1N=C(c2ccccc2)C(N=Nc2ccc(S(=O)(=O)CCOS(=O)(=O)O)cc2)C1=O)Nc1ccc(Cl)cc1 (stereo unspecified)",
    "SUBJECT_OF_TEST": "NCI-H460 lung",
    "TGI": "> 100 µM"
  },
  {
    "COMPOUND": "c1ccc2c(c1)nnn2C1CCCCO1 (stereo unspecified)",
    "SUBJECT_OF_TEST": "NCI-H460 lung",
    "TGI": "> 100 µM"
  },
  {
    "COMPOUND": "CC(C)C[C@H](NC(=O)[C@H](CC(C)C)NC(=O)[C@@H](Cc1c[nH]c2ccccc12)NC(=O)[C@H](Cc1ccccc1)NC(=O)[C@@H](Cc1c[nH]c2ccccc12)NC(=O)[C@H](CCC(N)=O)NC(=O)[C@@H](CCC(N)=O)NC(=O)[C@@H]1CCCN1C(=O)[C@@H](CCCCN)NC(=O)[C@H]1CCCN1C(=O)[C@H](N)CCCN=C(N)N)C(N)=O (H-[dR][dP][dK]P[dQ]Q[dW]F[dW]LL-NH2)",
    "SUBJECT_OF_TEST": "NCI-H460 lung",
    "TGI": "> 100 µM"
  },
  {
    "COMPOUND": "CCN(CC)/N=C\\c1c2ccccc2cc2ccccc12",
    "SUBJECT_OF_TEST": "NCI-H460 lung",
    "TGI": "> 100 µM"
  },
  {
    "COMPOUND": "OCc1ccc2c(c1)CC1(Cc3ccccc3C1)C2",
    "SUBJECT_OF_TEST": "NCI-H460 lung",
    "TGI": "44.6 µM"
  },
  {
    "COMPOUND": "NC(=O)NNC/C(Cl)=C(\\Cl)C(=O)O",
    "SUBJECT_OF_TEST": "NCI-H460 lung",
    "TGI": "> 100 µM"
  },
  {
    "COMPOUND": "CC1(C)CCCCCC(O)C(O)CCC(C)(C)C1=O (stereo unspecified)",
    "SUBJECT_OF_TEST": "NCI-H460 lung",
    "TGI": "> 100 µM"
  },
  {
    "COMPOUND": "N#Cc1c(/C=C/c2ccccc2)c2c([nH]c1=S)CCCCC2",
    "SUBJECT_OF_TEST": "NCI-H460 lung",
    "TGI": "> 100 µM"
  },
  {
    "COMPOUND": "Cn1nc(C(F)(F)F)cc1-c1cc(Cl)c(OCc2ccc(Cl)cc2)c(-c2ccc(Cl)c(C(F)(F)F)c2)c1O",
    "SUBJECT_OF_TEST": "NCI-H460 lung",
    "TGI": "2.21 µM"
  },
  {
    "COMPOUND": "CN(C(=O)C(C)(C)C)c1ccccc1I(=O)=O",
    "SUBJECT_OF_TEST": "NCI-H460 lung",
    "TGI": "> 100 µM"
  }
]
